assay target: Human immunodeficiency virus type 1 integrase (Human immunodeficiency virus 1, UniProt Q7ZJM1)
Sequence (Q7ZJM1 whole entry): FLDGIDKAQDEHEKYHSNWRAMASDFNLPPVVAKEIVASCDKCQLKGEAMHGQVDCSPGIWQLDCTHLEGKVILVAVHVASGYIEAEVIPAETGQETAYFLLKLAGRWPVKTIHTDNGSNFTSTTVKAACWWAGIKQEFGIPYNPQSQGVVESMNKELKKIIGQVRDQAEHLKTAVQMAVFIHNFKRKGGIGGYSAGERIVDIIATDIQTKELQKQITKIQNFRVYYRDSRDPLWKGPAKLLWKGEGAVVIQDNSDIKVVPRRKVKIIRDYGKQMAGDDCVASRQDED
assay details: Inhibition of HIV1 recombinant integrase strand transfer activity
pIC50: −log10 of the molar value.
measurement type: pIC50

                              line_notation  readout_value
0  CNC(=O)c1cc(F)ccc1CNC(=O)c1nc(C(C)(C)C)n(C)c(=O)c1O           7.70

(a) CNC(=O)c1cc(F)ccc1CNC(=O)c1nc(C(C)(C)C)nc(O)c1O
(b) Cn1c(C(C)(C)C)nc(C(=O)NCc2ccc(F)cc2C(=O)N2CCCC2)c(O)c1=O
(c) CC(C)(C)c1nc(O)c(O)c(C(=O)NCc2ccc(F)cc2S(C)(=O)=O)n1
Input: Would you mind ranking these molecules by ascending pIC50? Use the labels to give the requested order.
Output: b, c, a

Where these numbers come from: ChEMBL document CHEMBL1144749
